Give protein stability index for every item shown.
B1: MMP1 (parent)
chain: FHGTRQYKFDPKTKRILTLQKANS

# Variants of: B1
# test-method-notes: protein stability index of a GFP-peptide fusion (GPS, HEK-293T) (PSI 1-6); higher = more stable;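 note: lentivirally expressed fusions sorted by FACS into six bins by GFP to DsRed ratio, PSI derived from sequencing read proportions per bin multiplied by bin number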
# measurement-parameters: c terminus: a fixed tail appended
Numbers only.

INSERT INTO assay_data (sequence_input, property_measured, experimental_result) VALUES
  ('FHGTRQYKFDTKTKRILTLQKANS [P11T]', 'protein stability index', 2.43),
  ('FHGTRQKKFDPKTKRILTLQKANS [Y7K]', 'protein stability index', 2.55),
  ('FHGTRQYKFTPKTKRILTLQKANS [D10T]', 'protein stability index', 2.03);

Record protein stability index for all entries; do not skip any.
1. FHGTRQYKFDPKDKRILTLQKANS [T13D]
2. FHGTGQYKFDPKTKRILTLQKANS [R5G]
3. FEGTRQYKFDPKTKRILTLQKANS [H2E]
4. FHGTRQYKFDPKTCRILTLQKANS [K14C]
5. FHGTRQYKFGPKTKRILTLQKANS [D10G]
6. FHGTRQYKFDPKTKRTLTLQKANS [I16T]

[2.33, 1.88, 3.03, 2.18, 2.15, 1.91]
